Measured values drawn from PubChem BioAssay for this set.

Test: probe aLefty1 binding on compound microarray – biochemical, small-molecule microarray, 635/667 nm fluorescence, primary screen (AID 1153);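 note: score merges spot fluorescence with signal-to-noise ratio from the scanned slide images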
Settings: higher = more signal
Catalogue of composite z-score values
Lab note: record just the number, no unit beside it.

# compound, reported
data = [
    ("CN(C)CCCC[C@@H]1NC(=O)[C@H]2C[C@@H](C(=O)NCCCCCN)[C@@H](c3cccc(OCCO)c3)N2C1=O", 1.28),
    ("C=C(CCCC)/C(=C/C[C@@H](OC(C)=O)c1cccc(OCCO)c1)c1cnc2ccccc2c1", 0.201),
    ("CC(=CC1CCCCC1)[C@@H](NC(=O)c1cccnc1)c1ccc(-c2ccccc2)cc1", 0.188),
    ("C=CCOC(=O)[C@H]1[C@@H]2C(=O)O[C@@H](c3ccccc3)[C@@H](c3ccccc3)N2[C@@H](c2ccc(OCCOC(=O)[C@@H]3C[C@@H]4C(=O)N5CCC[C@H]5C(=O)N4[C@@H]3c3cccc(OCCO)c3)cc2)[C@]12C(=O)Nc1ccc(I)cc12", 1.53),
    ("COc1ccc(C(O)C2C=CC3C(=O)N(C)C(=O)C3N2N(c2ccccc2)c2ccccc2)c2ccccc12 (centres undefined)", 0.407),
    ("CCOC(=O)C1=CC[C@@H](c2ccccc2)N(S(=O)(=O)c2ccc(C)cc2)[C@H]1c1ccc(CC)cc1", 0.166),
]

Look up composite z-score of CO[C@H]1O[C@H](CO)[C@@H](OC(=O)Nc2cccc(F)c2)[C@H](OC(=O)Nc2ccccc2)[C@H]1OC(=O)Nc1ccccc1 and report it.
0.435

Look up composite z-score of O=C1C2C=CC(C(O)COCc3ccccc3)N(Nc3ccc([N+](=O)[O-])cc3)C2C(=O)N1c1ccccc1 (centres undefined) and report it.
0.447

Look up composite z-score of C=CC[C@@]1(C(=O)N2CCCCC2)N=C(c2ccc(OCCCO)cc2)O[C@@H]1c1ccccc1N=[N+]=[N-] and report it.
0.407

Look up composite z-score of [N-]=[N+]=Nc1ccccc1C[C@@]1(C(=O)N2CCCCC2)N=C(c2ccc(OCCCO)cc2)O[C@@H]1c1ccccc1 and report it.
0.0227

Look up composite z-score of C=CC[C@]1(C(=O)N2CCOCC2)N=C(c2ccc(OCCCO)cc2)O[C@H]1c1ccccc1N=[N+]=[N-] and report it.
0.448

Look up composite z-score of COc1ccc(C#Cc2ccc3c(c2)[C@]2(C(=O)N3)[C@H](c3ccc(O)cc3)N3[C@H](c4ccccc4)[C@H](c4ccccc4)OC(=O)[C@H]3[C@@H]2C(=O)N2CCc3cc(OC)c(OC)cc3C2)cc1 and report it.
0.156

Look up composite z-score of CN(C)CCCCNC(=O)[C@@H]1C[C@@H]2C(=O)N[C@@H](CCCCN)C(=O)N2[C@@H]1c1ccc(O)cc1 and report it.
0.129

Look up composite z-score of CCCCN1CC=CC23O[C@@H]4/C=C\CCCOC(=O)C4[C@H]2C(=O)N(CCCO)[C@@H]3C1=O (some centres undefined) and report it.
0.0927

----------
Catalogue of composite z-score values
Biological target: Albumin (Bos taurus) (UniProt P02769)
Sequence (P02769 whole entry, looked up): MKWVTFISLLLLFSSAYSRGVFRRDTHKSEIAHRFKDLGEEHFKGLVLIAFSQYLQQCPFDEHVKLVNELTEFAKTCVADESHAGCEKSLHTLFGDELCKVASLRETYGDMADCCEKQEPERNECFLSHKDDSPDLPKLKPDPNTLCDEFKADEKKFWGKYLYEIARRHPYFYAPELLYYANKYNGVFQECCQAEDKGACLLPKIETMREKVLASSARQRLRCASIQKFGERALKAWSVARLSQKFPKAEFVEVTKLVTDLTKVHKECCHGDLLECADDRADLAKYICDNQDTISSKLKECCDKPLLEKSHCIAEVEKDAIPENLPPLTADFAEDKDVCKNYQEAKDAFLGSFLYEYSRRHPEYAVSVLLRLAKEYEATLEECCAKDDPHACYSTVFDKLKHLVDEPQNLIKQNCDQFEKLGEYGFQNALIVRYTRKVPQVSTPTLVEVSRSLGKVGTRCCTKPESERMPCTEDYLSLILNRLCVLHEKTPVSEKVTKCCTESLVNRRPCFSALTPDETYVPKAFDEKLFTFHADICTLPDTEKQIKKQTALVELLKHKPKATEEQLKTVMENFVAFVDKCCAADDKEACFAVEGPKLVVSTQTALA
Assay: compounds binding labelled BSA control protein – biochemical, small-molecule microarray, Alexa647 label, 635/667 nm fluorescence, artefact control for SMM control protein annotation, profiling panel (AID 1118);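 note: score merges 667 nm emission intensity and signal-to-noise per printed compound spot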
Conditions: BSA-A647 binding, fluorescence 635 nm, higher = more signal

Worked set:
# molecule, composite z-score
data = [
    ("Cc1ccc(S[C@]2(C(=O)NCC(C)C)CC(=O)N(Cc3cc(C(F)(F)F)cc(C(F)(F)F)c3)[C@@H]2c2ccc(CO)cc2)cc1", 0.539),
    ("O=C1OCC=C[C@H]2OC34C=CCN(CCN5CCOCC5)C(=O)[C@H]3N(CCO)C(=O)[C@@H]4[C@@H]12 (stereo partly specified)", -0.263),
    ("C[C@H]1C2[C@H](Cc3ccccc3)NC(=O)[C@]23C(=O)NCC(=O)N2CCC[C@H]2C(=O)NC/C=C/CCC/C=C/C3[C@@H]2O[C@]12C (stereo partly specified)", -0.677),
    ("C=CC[C@@]1(C(=O)N2CCCCC2)N=C(c2ccc(OCCCO)cc2)O[C@@H]1c1ccccc1N=[N+]=[N-]", 0.82),
]

Report measured composite z-score on Albumin (Bos taurus) (UniProt P02769); entry: C=CCC(OC(C)=O)[C@@H]1[C@@H](N(Cc2cc3ccccc3o2)C(=O)Cc2ccc(OC)cc2)c2cc(OCCCO)ccc2N1C(=O)c1ccc2ccccc2c1 (stereo partly specified)
0.234

Report measured composite z-score on Albumin (Bos taurus) (UniProt P02769); entry: CC(C)[Si](C#CCCCC#N)(Oc1ccccc1Br)C(C)C
0.435

----------
Experiment: changes in parasitized red cell lysis, either direction – P. falciparum Indochina, OD700, 3 h, PSAC antagonist project, primary screen (AID 1156)
Conditions: P. falciparum-infected erythrocytes, osmotic lysis, higher = more signal, called active from +8 up or from −8 down
Is z-score at least 1? Then Yes. If not, No.

# compound, category
measured = [
    ("NCCCCCCNC(=O)[C@H]1C[C@H]2C(=O)N[C@@H](Cc3ccccc3)C(=O)N2[C@H]1c1cccc(OCCO)c1", "Yes"),
]

Quick check: does Cc1ccc(S[C@]2(C(=O)NCC(C)C)CC(=O)N(Cc3cc(C(F)(F)F)cc(C(F)(F)F)c3)[C@@H]2c2ccc(CO)cc2)cc1 have z-score greater than or equal to 1?
No

----------
Catalogue of z-score values
Test: S6 kinase pathway phospho-S6 level changes – cell-based, A549, cytoblot, luminescence, serum-stimulated, primary screen (AID 1158);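 note: serum-stimulated A549 lung adenocarcinoma cells; signal is phosphorylated S6 detected by cytoblot immunostaining with HRP secondary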
Details: 5 h, higher = more signal
Lab note: record just the number, no unit beside it.

Look up z-score of C=CCNC(=O)[C@H]1[C@@H]2C(=O)O[C@@H](c3ccccc3)[C@@H](c3ccccc3)N2[C@@H](c2ccc(OCCO)cc2)[C@]12C(=O)Nc1ccc(C#CCC(C(=O)OC)C(=O)OC)cc12 and report it.
-0.602

----------
Assay: forskolin-driven CRE-LacZ activity in PC12 – cell-based, CRE-LacZ reporter, forskolin-stimulated, primary screen (AID 1146);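 note: PC12 cells with 6xCRE LacZ reporter stimulated by forskolin 10 µM; beta-galactosidase reporter signal reflecting CREB driven transcription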
Conditions: luminescence, 4.5 h, higher = more signal, called active from +8 up or from −8 down
Is z-score at least 0.07? Then met. If not, not met.

# compound, category
rows = [
    ("C=CC[C@]1(C(=O)N2CCOCC2)N=C(c2ccc(OCCCO)cc2)O[C@H]1c1ccccc1N=[N+]=[N-]", "not met"),
]

Quick check: does CC(C)NC(=O)[C@@H]1c2ccccc2C(=O)N(C(C)C)[C@H]1c1ccc(CO)cc1 have z-score greater than or equal to 0.07?
met

----------
System: Plasmodium falciparum Sir2 (PF13_0152, Sir2A)
Experiment: Plasmodium falciparum Sir2A binding compounds – biochemical, small-molecule microarray, 635 nm fluorescence, primary screen (AID 1098);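 note: score merges spot fluorescence intensity with its signal-to-noise ratio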
Conditions: fluorescence 635 nm, higher = more signal
Is composite z-score at least 0.8? Then y. If not, n.

Example entries begin here.
# compound-structure, category
records = [
    ("O=C1O[C@H](c2ccccc2)[C@H](c2ccccc2)N2[C@H]1[C@@H](C(=O)NC[C@H](O)c1ccccc1)[C@]1(C(=O)Nc3ccccc31)[C@H]2c1ccc(O)cc1", "n"),
    ("COc1cc2c(cc1OC)CN(C(=O)[C@H]1[C@@H]3C(=O)O[C@@H](c4ccccc4)[C@@H](c4ccccc4)N3[C@@H](c3ccccc3OCCO)[C@]13C(=O)Nc1ccc(C#CCCO)cc13)CC2", "y"),
    ("C#CCNCc1ccccc1", "n"),
    ("C=CCN1Cc2ccccc2[C@@H]2OC(c3ccc(OCCCO)cc3)=N[C@]2(CCS(=O)(=O)c2ccccc2)C1=O", "y"),
]

As a next step, examine the compound that follows.
Quick check: does C=CCNC(=O)[C@H]1[C@@H]2C(=O)O[C@@H](c3ccccc3)[C@@H](c3ccccc3)N2[C@@H](c2ccc(OCCO)cc2)[C@]12C(=O)Nc1ccc(C#CCC(C(=O)OC)C(=O)OC)cc12 have composite z-score greater than or equal to 0.8?
y

----------
Test: probe aDKK1 binding to arrayed compounds – biochemical, biotinylated probe, 635/667 nm fluorescence, primary screen (AID 1099);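 note: score merges 667nm spot fluorescence with signal to noise across triplicate slides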
Details: small-molecule microarray, higher = more signal
quantity-name: composite z-score
Lab note: record just the number, no unit beside it.

Worked set:
# compound, quantity-name, reported
records = [
    ("CCOC(=O)C[C@H]1[C@H](OC(=O)c2ccc(C(=O)c3ccccc3)cc2)[C@@H](NC(=O)c2ccccc2)c2cc(OCCCO)ccc2N1C(=O)c1ccccc1", "composite z-score", 0.188),
    ("COC(=O)C[C@H]1O[C@@H](CCc2ccccc2)[C@@H](C)[C@@H]1[Si](C)(C)c1ccc(OC)cc1", "composite z-score", -0.0884),
    ("CCCC=C(CCC)[C@@H](NS(=O)(=O)c1ccc(Cl)cc1)c1ccc(C(=O)OC)cc1", "composite z-score", 0.113),
]

Look up composite z-score of COC(=O)[C@@]1(Cc2ccc(OC)cc2)[C@H]2c3cc(C(=O)N(C)C)n(Cc4ccc(C(F)(F)F)nc4)c3C[C@H]2CN1C(=O)c1ccccc1 and report it.
1.15

Look up composite z-score of O=C1C2C=CC(C(O)c3ccc4c(c3)OCO4)N(Nc3ccc([N+](=O)[O-])cc3)C2C(=O)N1c1ccccc1 (stereo not drawn) and report it.
-0.0669

Look up composite z-score of O=C(O)[C@H]1C[C@H]2C(=O)N3CCC[C@H]3C(=O)N2[C@H]1c1ccc(O)cc1 and report it.
-0.0067

Look up composite z-score of O=C1OCC=C[C@H]2OC34C=CCN(Cn5nnc6ccccc65)C(=O)[C@H]3N(CCCCCO)C(=O)[C@@H]4[C@@H]12 (stereo partly drawn) and report it.
0.26

Look up composite z-score of CC=CC(O)C1C=CC2C(=O)N(C)C(=O)C2N1N(c1ccccc1)c1ccccc1 (stereo not drawn) and report it.
-0.0262
